Test: self-splicing fitness, log relative to wild type (ln ratio); higher = more splicing; Tetrahymena group I intron in knt gene, E. coli kanamycin selection, DiMSum; sequences stand for … in CUCUCU…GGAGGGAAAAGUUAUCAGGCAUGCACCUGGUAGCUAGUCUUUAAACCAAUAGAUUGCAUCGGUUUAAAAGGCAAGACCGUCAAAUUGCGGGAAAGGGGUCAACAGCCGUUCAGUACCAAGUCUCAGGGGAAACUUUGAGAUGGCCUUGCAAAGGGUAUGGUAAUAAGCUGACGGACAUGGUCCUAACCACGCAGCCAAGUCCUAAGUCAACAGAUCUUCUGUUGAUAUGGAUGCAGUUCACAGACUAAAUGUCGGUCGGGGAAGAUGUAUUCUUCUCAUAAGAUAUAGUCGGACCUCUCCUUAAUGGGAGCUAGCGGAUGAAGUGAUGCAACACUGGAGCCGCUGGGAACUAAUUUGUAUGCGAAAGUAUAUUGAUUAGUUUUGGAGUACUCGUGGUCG;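 also: selection with 25 µg/mL kanamycin versus none on LB agar overnight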
Details: 30 °C
ENDPOINT NAME: self-splicing fitness (ln)
Answers are plain numbers.

Examples with their reported self-splicing fitness (ln) follow.
- SEQ STRING: "GCCAAGCAAUAUUACGGUGC"
  ENDPOINT NAME: "self-splicing fitness (ln)"
  MEASURED NUMBER: -3.11
- SEQ STRING: "GCCUAGCAAUAUUACGACAU"
  ENDPOINT NAME: "self-splicing fitness (ln)"
  MEASURED NUMBER: -2.11
- SEQ STRING: "GCCCAGCAAUAUUACGGCAC"
  ENDPOINT NAME: "self-splicing fitness (ln)"
  MEASURED NUMBER: -1.45

Kindly give each listed record's self-splicing fitness (ln).
1. GUUAAGCAAUAUUACGUAGA
2. UAUCAGCAAUAUUACGGUGG
3. CGCCAGCAAUAUUACGGACC
4. AUAGAGCAAUAUUACGUCGC

A.
1. -3.06
2. -1.2
3. -1.3
4. -2.68

Q. Provide only the value of recorded self-splicing fitness (ln) for GAGCAGCAAUAUUACGUACU
A. -0.0719

---

Assay: self-splicing fitness, log relative to wild type (ln ratio); higher = more splicing; Tetrahymena group I intron in knt gene, E. coli kanamycin selection, DiMSum; sequences stand for … in CUCUCU…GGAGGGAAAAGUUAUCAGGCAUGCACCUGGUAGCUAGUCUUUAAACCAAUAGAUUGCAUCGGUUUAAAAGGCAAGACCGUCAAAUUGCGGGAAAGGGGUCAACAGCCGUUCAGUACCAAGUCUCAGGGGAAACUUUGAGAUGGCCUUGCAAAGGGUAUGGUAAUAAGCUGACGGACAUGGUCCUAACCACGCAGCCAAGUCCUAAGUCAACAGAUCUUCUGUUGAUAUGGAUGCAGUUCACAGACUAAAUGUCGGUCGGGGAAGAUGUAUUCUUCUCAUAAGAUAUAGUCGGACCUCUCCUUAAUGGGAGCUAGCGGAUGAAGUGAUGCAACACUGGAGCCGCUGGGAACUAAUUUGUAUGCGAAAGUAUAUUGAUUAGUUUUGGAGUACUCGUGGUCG
Conditions: 30 °C
ENDPOINT NAME: self-splicing fitness (ln)

Examples with their reported self-splicing fitness (ln) follow.
- SEQ STRING: "AAUUAGCAAUAUUACGCCCA"
  self-splicing fitness (ln): 0.555
- SEQ STRING: "UACUAGCAAUAUUACGUAGU"
  self-splicing fitness (ln): -3.62
- SEQ STRING: "GAGGAGCAAUAUUACGAAUU"
  self-splicing fitness (ln): -3.43

Kindly give each listed record's self-splicing fitness (ln).
1. UGCCAGCAAUAUUACGCAUG
2. UCGUAGCAAUAUUACGCCAG
3. GGCGAGCAAUAUUACGGGUA

A.
-1.28
-1.49
-3.42

Kindly give each listed record's self-splicing fitness (ln).
1. AGGAAGCAAUAUUACGUAUG
2. CGGGAGCAAUAUUACGAAAG

A.
1. -2.39
2. -2.47

---

Would you kindly list self-splicing fitness (ln) for each of these sequences?
Experiment: self-splicing fitness, log relative to wild type (ln ratio); higher = more splicing; Tetrahymena group I intron in knt gene, E. coli kanamycin selection, DiMSum; sequences stand for … in CUCUCU…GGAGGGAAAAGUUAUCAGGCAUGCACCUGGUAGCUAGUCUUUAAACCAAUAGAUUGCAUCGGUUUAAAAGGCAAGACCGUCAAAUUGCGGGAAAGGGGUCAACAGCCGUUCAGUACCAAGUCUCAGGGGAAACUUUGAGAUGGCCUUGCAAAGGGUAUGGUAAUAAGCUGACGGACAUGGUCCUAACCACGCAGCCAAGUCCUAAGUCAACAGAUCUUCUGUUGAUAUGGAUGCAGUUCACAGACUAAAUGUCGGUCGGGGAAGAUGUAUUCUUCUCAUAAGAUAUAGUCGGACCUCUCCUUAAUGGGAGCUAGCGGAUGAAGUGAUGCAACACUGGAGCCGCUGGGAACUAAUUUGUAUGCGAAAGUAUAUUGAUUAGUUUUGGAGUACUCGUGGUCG
Details: 37 °C
Give bare numbers.

Examples with their reported self-splicing fitness (ln) follow.
- SEQ STRING: "UCUGAGCAAUAUUACGUCUU"
  self-splicing fitness (ln): -2.9
- SEQ STRING: "UUGCAGCAAUAUUACGCGGC"
  self-splicing fitness (ln): -2.28
- SEQ STRING: "ACCAAGCAAUAUUACGUGUA"
  self-splicing fitness (ln): -1.37
- SEQ STRING: "ACAAAGCAAUAUUACGCUCG"
  self-splicing fitness (ln): 0.156
- SEQ STRING: "GGGGAGCAAUAUUACGUACU"
  self-splicing fitness (ln): -0.886

Kindly give each listed record's self-splicing fitness (ln).
1. UCUCAGCAAUAUUACGUGUA
2. GUCUAGCAAUAUUACGGACC

A.
1: -0.902; 2: -0.565

Kindly give each listed record's self-splicing fitness (ln).
1. UAUAAGCAAUAUUACGUAAA
2. UUCCAGCAAUAUUACGGCAU
3. AUGGAGCAAUAUUACGUUCG
4. ACGAAGCAAUAUUACGUUCG

A.
1. -0.632
2. -0.66
3. -0.826
4. -0.906

Kindly give each listed record's self-splicing fitness (ln).
1. UUAGAGCAAUAUUACGCUCU
2. UUUUAGCAAUAUUACGACGU

A.
-1.85
-1.24

Kindly give each listed record's self-splicing fitness (ln).
1. CUGCAGCAAUAUUACGAGCU
2. GCUCAGCAAUAUUACGGUAA
3. CCAGAGCAAUAUUACGAUUC
4. CGGGAGCAAUAUUACGAGCA
5. CGGAAGCAAUAUUACGUGUG
6. CUGCAGCAAUAUUACGGAAG
7. ACAUAGCAAUAUUACGGCCA
8. GUCUAGCAAUAUUACGGAGG

A.
[-2.25, -0.551, -2.67, -3.2, -0.291, -0.784, -0.572, -1.59]

---

Test: self-splicing fitness, log relative to wild type (ln ratio); higher = more splicing; Tetrahymena group I intron in knt gene, E. coli kanamycin selection, DiMSum; sequences stand for … in CUCUCU…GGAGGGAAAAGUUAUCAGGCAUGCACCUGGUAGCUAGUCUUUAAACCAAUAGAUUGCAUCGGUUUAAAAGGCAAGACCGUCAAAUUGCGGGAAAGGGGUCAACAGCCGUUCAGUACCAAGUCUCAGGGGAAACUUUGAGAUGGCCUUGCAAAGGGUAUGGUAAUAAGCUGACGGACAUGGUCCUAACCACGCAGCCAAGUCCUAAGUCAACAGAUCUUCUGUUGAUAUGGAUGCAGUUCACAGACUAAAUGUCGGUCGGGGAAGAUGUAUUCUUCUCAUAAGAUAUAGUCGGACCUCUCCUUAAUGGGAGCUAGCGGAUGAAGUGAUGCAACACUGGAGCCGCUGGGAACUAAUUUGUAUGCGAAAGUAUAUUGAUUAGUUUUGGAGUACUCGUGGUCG
Settings: 30 °C
ENDPOINT NAME: self-splicing fitness (ln)
Numbers only.

- SEQ STRING: "UUAGAGCAAUAUUACGUAAC"
  self-splicing fitness (ln): -2.76
- SEQ STRING: "AAAGAGCAAUAUUACGCUUG"
  self-splicing fitness (ln): -1.67
- SEQ STRING: "CUCAAGCAAUAUUACGUACC"
  self-splicing fitness (ln): -4.45

Kindly give each listed record's self-splicing fitness (ln).
1. ACGCAGCAAUAUUACGAUGG
2. UUAGAGCAAUAUUACGUCCG
3. AGGCAGCAAUAUUACGCCUA
4. UCGAAGCAAUAUUACGAUUG
5. GGAAAGCAAUAUUACGAUCG
6. ACUAAGCAAUAUUACGCGCU
7. CUUAAGCAAUAUUACGGUGC
8. AAAGAGCAAUAUUACGAGUG

A.
1. -1.82
2. -2.38
3. -1.98
4. -2.47
5. -0.227
6. -0.324
7. -3.83
8. -3.95

Kindly give each listed record's self-splicing fitness (ln).
1. CAUGAGCAAUAUUACGUGAA
2. GAUCAGCAAUAUUACGUAAC
3. GAGUAGCAAUAUUACGAACG
4. UGGGAGCAAUAUUACGUGCA
5. CUAGAGCAAUAUUACGCGGG
6. ACGGAGCAAUAUUACGCGGC

A.
[-3.86, -0.807, -2.36, -1.07, -2.91, -3.42]

Kindly give each listed record's self-splicing fitness (ln).
1. GAAGAGCAAUAUUACGUCCG
2. ACGUAGCAAUAUUACGUUUC
3. GAUUAGCAAUAUUACGCACA

A.
-3.48
-4.47
-0.341

Kindly give each listed record's self-splicing fitness (ln).
1. AACUAGCAAUAUUACGCUAA
2. AGAGAGCAAUAUUACGCAGG
3. AGGUAGCAAUAUUACGUAGA
4. UGUUAGCAAUAUUACGCUCA

A.
1: -2.06; 2: -2.58; 3: -3.99; 4: 0.179
